Experimental details: chemical genetic growth profiling, strain panel (AID 1159580);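 further: tested at 20 µM; growth read once vehicle control cultures reached saturation at 30 °C; 1 = growth at the plate median or of vehicle wells; lower values mean less growth of the strain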
Stated conditions: S. cerevisiae deletion strains, growth OD, locus YLR418C, strain cdc73, stronger effect = lower value
The whole screen tested about 5,500 compounds, of which about 2,000 (36%) were called active. Roughly 18% stayed inconclusive and do not appear here. The list shows a part of the results.
normalized growth values for the compounds below.
Response field accepts a number only; no unit should be typed.

The following compounds have reported results that may help.
Compound: C=C[C@H]1CN2CC[C@H]1C[C@@H]2[C@@H](OC(=O)OCC)c1ccnc2ccc(OC)cc12
normalized growth: 1.02

Compound: CNC(C)C(O)c1ccccc1 (centres undefined)
normalized growth: 1.04

Compound: CC(=O)Oc1ccc2c(c1C(C)C)CCC1C(C)(C)CCC[C@]21C (some centres undefined)
normalized growth: 1

Compound: CC(C)c1c(O)ccc2c1CCC1[C@@](C)(C=O)CCC[C@]21C (some centres undefined)
normalized growth: 0.137

Query :: For COC(=O)[C@]1(C)CCC[C@]2(C)c3ccc(C(C)C)cc3C(=O)CC12 (some centres undefined) , what is its reported normalized growth?
Result :: 0.865

Query :: Name the reported normalized growth value associated with the compound COc1ccc(Cl)cc1C(=O)NCCc1ccc(S(=O)(=O)NC(=O)NC2CCCCC2)cc1
Result :: 0.944

Query :: Please look up its normalized growth: CCCCCCCCCCCC1=C(O)C(=O)C=C(O)C1=O
Result :: 0.819

Query :: I'd like to know its normalized growth. The compound in question is CCc1cccc(CC)c1N(COC)C(=O)CCl
Result :: 1.05

Query :: Param item = C[C@@H]([C@H](O)c1ccccc1)N(C)C ; retrieve measured normalized growth.
Result :: 1.04

====

Experimental details: chemical genetic growth profiling, strain panel (AID 1159580);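 further: tested at 20 µM; growth read once vehicle control cultures reached saturation at 30 °C; 1 = growth at the plate median or of vehicle wells; lower values mean less growth of the strain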
Stated conditions: S. cerevisiae deletion strains, growth OD, locus YER002W, strain NOP16, stronger effect = lower value
In all, about 5,500 compounds went through this assay and about 2,000 (36%) were called active. Roughly 18% stayed inconclusive and do not appear here. The list shows a part of the results.
Measured normalized growth accompanies every entry in the list below.
Lab note: record just the number, no unit beside it.

Query :: Value lookup for normalized growth; key = O=S(=O)(c1cccc2c(Cl)cccc12)N1CCCNCC1
Result :: 0.988

Query :: Query: normalized growth; subject: CCCC1O[C@@H]2C[C@H]3[C@@H]4CCC5=CC(=O)C=C[C@]5(C)[C@H]4[C@@H](O)C[C@]3(C)[C@]2(C(=O)CO)O1 (stereo not given in full)
Result :: 1.01

Query :: Value lookup for normalized growth; key = COc1ccc(Cl)cc1C(=O)NCCc1ccc(S(=O)(=O)NC(=O)NC2CCCCC2)cc1
Result :: 1.02

Query :: Fill in: normalized growth of C[C@H](O)C(=O)C1=Nc2c(nc(N)[nH]c2=O)NC1 is ___
Result :: 1.04

Query :: Entry CC1(C)CCC(NC(=O)[C@@H](N)CCC(=O)O)CC1 has what normalized growth?
Result :: 0.995

====

We begin with a simple list: items and their reported normalized growth.
Experimental details: chemical genetic growth profiling, strain panel (AID 1159580);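 further: tested at 20 µM; growth read once vehicle control cultures reached saturation at 30 °C; 1 = growth at the plate median or of vehicle wells; lower values mean less growth of the strain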
Stated conditions: S. cerevisiae deletion strains, growth OD, locus YBR231C, strain swc5, stronger effect = lower value
About 2,000 (36%) of roughly 5,500 compounds were called active. About 18% were inconclusive and are not listed. Some of the results follow.
Respond numerically, and do not add a unit to the figure.

Compound: N#Cc1nn(-c2c(Cl)cc(C(F)(F)F)cc2Cl)c(N)c1S(=O)C(F)(F)F (stereo unspecified)
normalized growth: 1.01

Moving on to another compound below.
Query :: Which normalized growth is listed for CCCCCC(=O)Cc1cc(O)cc(O)c1C(=O)Oc1cc(CC(=O)CCCCC)c(C(=O)O)c(OC)c1 ?
Result :: 0.927
